Each entry below carries its measured Ki, system: A1 (Homo sapiens).
Sequence (Q16548 whole entry): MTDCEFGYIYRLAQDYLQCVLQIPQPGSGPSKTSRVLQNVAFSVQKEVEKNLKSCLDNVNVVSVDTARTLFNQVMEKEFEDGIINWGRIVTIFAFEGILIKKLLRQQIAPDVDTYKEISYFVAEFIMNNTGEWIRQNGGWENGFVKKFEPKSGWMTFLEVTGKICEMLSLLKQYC

CCOC(=O)c1c(C)oc2c1c(C(c1ccncc1)N1CCN(C)CC1)c(O)c1ccccc12 (stereo not drawn)
> 25 µM
CCOC(=O)c1c(C)oc2c1c(C(c1ccnc(Cl)c1)N1CCOCC1)c(O)c1ccccc12 (stereo not drawn)
> 25 µM

Note: attention shifts to another entry.
query: A1 (Homo sapiens) / Ki / CCOC(=O)c1c(C)oc2c1c(C(c1ccncc1)N1CCN(C(C)C)CC1)c(O)c1ccccc12 (stereo not drawn) : value?
result: > 25 µM

---

Bcl-xL (Homo sapiens, UniProt Q07817) Ki data
Sequence (Q07817 whole entry, species assumed): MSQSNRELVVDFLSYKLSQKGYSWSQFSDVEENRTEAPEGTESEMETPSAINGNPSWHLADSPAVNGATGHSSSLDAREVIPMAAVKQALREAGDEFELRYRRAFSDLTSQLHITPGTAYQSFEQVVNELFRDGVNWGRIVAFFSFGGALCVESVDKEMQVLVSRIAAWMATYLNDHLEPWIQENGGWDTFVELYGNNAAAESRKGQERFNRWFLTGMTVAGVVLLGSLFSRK

CCOC(=O)c1c(C)oc2c1c(C(c1ccnc(Cl)c1)N1CCOCC1)c(O)c1ccccc12 (centres unmarked) [UMI-1026]
> 30 µM

query: Lab request: please report Ki under test system Bcl-xL (Homo sapiens, UniProt Q07817) for CCOC(=O)c1c(C)oc2c1c(C(c1ccncc1)N1CCOCC1)c(O)c1ccccc12 (centres unmarked) [UMI-1007]
result: > 30 µM
